Molecular target: T1, human CDH6 on tumor cells (OVCAR3 cells, PA-1 cells) (human, UniProt P55285 54-790)
T1 sequence: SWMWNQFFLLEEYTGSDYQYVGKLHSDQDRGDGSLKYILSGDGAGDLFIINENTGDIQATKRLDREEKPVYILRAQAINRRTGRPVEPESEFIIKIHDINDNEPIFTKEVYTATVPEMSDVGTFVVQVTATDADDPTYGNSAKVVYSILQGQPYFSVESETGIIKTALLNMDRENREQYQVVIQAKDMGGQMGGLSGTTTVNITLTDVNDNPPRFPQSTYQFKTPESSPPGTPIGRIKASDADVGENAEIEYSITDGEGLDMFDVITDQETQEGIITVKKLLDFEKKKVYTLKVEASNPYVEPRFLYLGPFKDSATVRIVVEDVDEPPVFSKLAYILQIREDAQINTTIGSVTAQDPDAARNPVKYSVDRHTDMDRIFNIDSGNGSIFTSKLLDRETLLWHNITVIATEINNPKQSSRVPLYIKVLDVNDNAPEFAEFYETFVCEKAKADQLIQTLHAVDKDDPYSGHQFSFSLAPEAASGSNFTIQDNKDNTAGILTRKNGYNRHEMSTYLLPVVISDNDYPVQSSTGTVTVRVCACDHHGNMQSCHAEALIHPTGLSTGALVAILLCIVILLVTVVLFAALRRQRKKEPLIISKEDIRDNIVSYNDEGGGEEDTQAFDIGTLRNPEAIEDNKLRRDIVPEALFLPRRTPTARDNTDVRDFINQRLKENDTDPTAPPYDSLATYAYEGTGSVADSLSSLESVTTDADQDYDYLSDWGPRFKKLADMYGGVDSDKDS
Experiment: FACS, PA-1 cells
Some binders, each annotated with its measured Max MFI.
Just the number please, in MFI, no unit attached.

Asked: I would be grateful if you could share the reported Max MFI for CHI-CDH6-7 (antibody, human IgG1, kappa, V domains shown, also called CH1-CDH6-7; chimeric antibody of murine CDH6-7) VH: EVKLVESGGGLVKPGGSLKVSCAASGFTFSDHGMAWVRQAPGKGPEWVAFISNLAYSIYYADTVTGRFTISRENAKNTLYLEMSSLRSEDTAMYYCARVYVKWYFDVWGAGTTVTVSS VL: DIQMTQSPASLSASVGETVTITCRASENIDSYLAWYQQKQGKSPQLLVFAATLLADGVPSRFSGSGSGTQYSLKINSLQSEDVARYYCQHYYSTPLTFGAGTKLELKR .
Given back: 2470

More entries:
Asked: I would be grateful if you could share the reported Max MFI for CHI-CDH6-13 (antibody, human IgG1, kappa, V domains shown, also called chimeric antibody of murine CDH6-13) VH: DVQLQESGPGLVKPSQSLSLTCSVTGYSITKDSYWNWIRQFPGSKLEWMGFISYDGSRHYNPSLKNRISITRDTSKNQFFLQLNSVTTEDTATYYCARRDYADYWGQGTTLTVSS VL: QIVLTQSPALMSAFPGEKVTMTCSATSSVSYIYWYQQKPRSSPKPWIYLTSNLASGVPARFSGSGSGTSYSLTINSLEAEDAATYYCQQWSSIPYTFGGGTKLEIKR .
Given back: 4440

Data origin, for the record: patent US20260234242A1
